# assayed_target: MyD88^TIR (Homo sapiens, UniProt Q99836)
# Construct: MyD88 (residues 148–296); 6xHis; made in house; host or cells: E. coli BL21 (DE3)
# Sequence (Q99836 148-296): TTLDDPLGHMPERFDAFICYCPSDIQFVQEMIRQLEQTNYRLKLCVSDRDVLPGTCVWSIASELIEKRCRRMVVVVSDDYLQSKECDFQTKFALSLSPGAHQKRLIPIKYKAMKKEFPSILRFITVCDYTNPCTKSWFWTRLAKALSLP
# test_name: T‐Surf phage library (P8 and P3) selection against MyD88^TIR, four rounds, NGS read counts
# Type: binding
# test_parameters: P8 library, selection against MyD88, rank before grouping
attribute_measured: P8_MyD88 Rank (before)
One number for each entry.

Some sequences with recorded P8_MyD88 Rank (before):
DPQDPDWCYERLVSLI :: 2962
MFGGATLHDVLELISM :: 3654
SLLYDHLRWLGIRAFL :: 3759
SPWALYELAMIIEAM :: 3761
LGYHWLNWESFVGIED :: 3345

Dear reader, for each entry below, please note its P8_MyD88 Rank (before).
1. VANILGYHWMDWVYFV
2. DQQDLDWFYERLVSVF
3. DVLYWALTEAGLRGFR
4. WALDEVLKIQDDNETM
5. DPQDLDWFWVRLIEAL

[2191, 3051, 2557, 1423, 2746]

---

# assayed_target: TIR domain of MyD88 (Homo sapiens, UniProt Q99836)
# Construct: MyD88 (residues 148–296); 6xHis; made in house; host or cells: E. coli BL21 (DE3)
# Sequence (Q99836 148-296): as the sequence (Q99836 148-296) above
# test_name: Fluorescence polarization (FP) assay, MyD88 TIR
# Format: binding
# test_parameters: Cy5‐labeled TDIP1 50 nM, TIR domain diluted 1:1 from 40 µM, 30 min RT, ± SD, n = 3, read-out: apparent Kd against MyD88
Where no end group is shown, it is not given here.
attribute_measured: Kd (µM)
Give bare numbers, in µM.

Write down Kd measured for item RQIKIWFQNRRMKWKKWFYERLVSLILRDTKV [TDIP1] 2.8

---

# assayed_target: MAL^TIR (Homo sapiens)
# Construct: MAL (residues 79–221); 6xHis; made in house; host or cells: E. coli BL21 (DE3)
# Sequence (P58753 79-221): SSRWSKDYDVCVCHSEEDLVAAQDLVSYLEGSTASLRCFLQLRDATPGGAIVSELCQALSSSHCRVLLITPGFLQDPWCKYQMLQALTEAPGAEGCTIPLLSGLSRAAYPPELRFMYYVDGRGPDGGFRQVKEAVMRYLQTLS
# test_name: T‐Surf phage library (P8 and P3) selection against MAL^TIR, four rounds, NGS read counts
# Assay type: binding
# test_parameters: P3_MAL: rank by count before grouping
attribute_measured: Rank (before)
One number for each entry.

Here is how some sequences turned out for Rank (before).
YAFKGNLHRYLVQRGV :: 1483
YAFTGHLHRFWCSVA :: 727
LQNQWKLALTKVASL :: 327
HHKAAMAKRWRNMKN :: 2818
NQWSNSLTAAANLSGW :: 3419

Hi team, please reply with Rank (before) for each item in this list.
1. PNLRTKVLNYLMRTK
2. SKDYAQSAWALEELTK
3. YALPAICIVIWCSVA
4. RWFWDKLIYALSRNTH

[955, 99, 516, 3228]

---

# assayed_target: MyD88^TIR (Homo sapiens)
# Construct: MyD88 (residues 148–296); 6xHis; made in house; host or cells: E. coli BL21 (DE3)
# test_name: T‐Surf phage library (P8 and P3) selection against MyD88^TIR, four rounds, NGS read counts
# Assay type: binding
# test_parameters: P8 library, selection against MyD88, rank before grouping
attribute_measured: P8_MyD88 Rank (before)
One number for each entry.

Worked cases, P8_MyD88 Rank (before) given:
DPQYRDWFYERLVSLP :: 2642
YAASPWWFDDIQQIQLFWD :: 1720
WALDELLKILYVIATL :: 1480
WSLDELLKILYAKETI :: 1386
LFWDRLLYSLHVTE :: 3208
LGYISIVRGYFVGIER :: 3337
YLRADDSWFEEKLLFA :: 2062
LGYHWMGWEYFVGIED :: 3298

Let me know recorded P8_MyD88 Rank (before) for "DPQDLQWFYERLVSLMASGI" , thanks. 2920

---

# assayed_target: MAL^TIR (Homo sapiens)
# Construct: MAL (residues 79–221); 6xHis; made in house; host or cells: E. coli BL21 (DE3)
# test_name: T‐Surf phage library (P8 and P3) selection against MAL^TIR, four rounds, NGS read counts
# Assay type: binding
# test_parameters: P3_MAL: rank by count before grouping
In plain terms, low Rank (before), meaning strictly below 1000, gives yes (1), and everything else gives no (0).

For this sequence, is Rank (before) lower than 1000? "SSFRERLWRLLELRKK" no (0)

Field: below-cutoff. Rule: recorded Rank (before) strictly less than 1000. Subject: "RRTFLSHLQHHFASKG" yes (1)

Hello, I'm reviewing records and need to know if Rank (before) of "FLNFRGLDVRNYFLA" is below 1000. Could you check? no (0)

In the record for "SLRNKLLSHLLEEFKS" , is Rank (before) less than 1000? no (0)

---

Task for the reader: assign each of the following sequences its reported P3_MyD88 Rank (after).
# assayed_target: MyD88^TIR (Homo sapiens)
# Construct: MyD88 (residues 148–296); 6xHis; made in house; host or cells: E. coli BL21 (DE3)
# test_name: T‐Surf phage library (P8 and P3) selection against MyD88^TIR, four rounds, NGS read counts
# Format: binding
# test_parameters: P3 library, selection against MyD88, rank by count after grouping
One number for each entry.

Worked examples, 3 sequences total:
HQLSVDIQGYALKAGV :: 679
ARFKDMIINKWRTALKERLP :: 744
HLLKEFDKKLIPRLK :: 685

# batch size: 8; output P3_MyD88 Rank (after) per entry
1. DHLDPSHLRKQSGEFG
2. EAFAVHVWSSKANSLVG
3. YTALTNMSFHTFRDNY
4. NELVQVWSSKANSLVR
5. NHHLDPPRGKANKPGILG
6. NELVNVWSSKANSQVG
7. GEDTRLPLPAICMRP
8. LKVESWRQALEKAGKLRYAM

1. 734
2. 727
3. 677
4. 693
5. 702
6. 691
7. 740
8. 707

---

# assayed_target: MyD88^TIR (Homo sapiens)
# Construct: MyD88 (residues 148–296); 6xHis; made in house; host or cells: E. coli BL21 (DE3)
# test_name: T‐Surf phage library (P8 and P3) selection against MyD88^TIR, four rounds, NGS read counts
# Assay type: binding
# test_parameters: P3_MyD88: rank by count before grouping
Could you label it condition met if measured Rank (before) is 3000 or higher, and condition not met otherwise?

LKGGDSYFWSKQPYAL :: condition not met

Hello, I need to know if "LVAHELSNKMKSFATI" has measured Rank (before) not below 3000. Thanks! condition not met

Is Rank (before) at least 3000? Consider "LKVENWRQAMEKAGKL" condition not met

Say whether "GLYDELFMTETDERKR" shows Rank (before) of 3000 or more. condition not met

Check the entry "LKWGEPYFCSKLRYAM" : does Rank (before) equal or exceed 3000? condition not met

---

Give P8_MyD88 Rank (before) for every item shown.
# assayed_target: MyD88^TIR (Homo sapiens)
# Construct: MyD88 (residues 148–296); 6xHis; made in house; host or cells: E. coli BL21 (DE3)
# test_name: T‐Surf phage library (P8 and P3) selection against MyD88^TIR, four rounds, NGS read counts
# Assay type: binding
# test_parameters: P8 library, 4R selection against MyD88, rank before grouping

DPQDLAWVYERLVSPV :: 2733

Parameter requested: P8_MyD88 Rank (before). Apply to each item below.
1. LGYHGLIGSILWALK
2. NYTSSSWALDEQWNIF

[3317, 3860]

---

# assayed_target: MyD88^TIR (Homo sapiens)
# Construct: MyD88 (residues 148–296); 6xHis; made in house; host or cells: E. coli BL21 (DE3)
# test_name: T‐Surf phage library (P8 and P3) selection against MyD88^TIR, four rounds, NGS read counts
# Format: binding
# test_parameters: P8_MyD88 pool: P8 T-Surf phage library, 4th round of selection against MyD88 TIR, share of NGS reads
Sorting guide: entries reporting Population beneath 0.01% go in the YES pile, the rest go in the NO pile.

See these solved cases before continuing.
YATSSWALNELVYLIM :: YES
SWAVDELLKILQAWDE :: NO

Population strictly < 0.01% for this sequence? "AYILNFIKGNVMFEFL" NO

Does this sequence meet the criterion Population < 0.01%? "DFLLTILEAMKTKNQL" YES

For "SSRWALDELVHIMQAL" , is the recorded Population below the cut-off of 0.01%? YES

Strictly below 0.01%: is that where Population of "YASSSWALDELWNIF" sits? YES

Input "YYFTDWDSEAEIIQKM" ; condition: Population strictly below 0.01%. Does it hold? NO

Quick check: Population of "LFWDRLIYAVSDVASA" under 0.01%? NO

Check if Population falls below 0.01% for "DIVAYVMQKLMKHQVF" . YES

Please check: Population for "DYTSSPWALEELLKIM" , strictly under 0.01% or not? YES
